target: Thromboxane A2 receptor (Homo sapiens) (UniProt P21731); assay: Competition factor for Thromboxane A2 receptor binding affinity CF = (IC50-test)/(IC50-standard)
Sequence (P21731 whole entry): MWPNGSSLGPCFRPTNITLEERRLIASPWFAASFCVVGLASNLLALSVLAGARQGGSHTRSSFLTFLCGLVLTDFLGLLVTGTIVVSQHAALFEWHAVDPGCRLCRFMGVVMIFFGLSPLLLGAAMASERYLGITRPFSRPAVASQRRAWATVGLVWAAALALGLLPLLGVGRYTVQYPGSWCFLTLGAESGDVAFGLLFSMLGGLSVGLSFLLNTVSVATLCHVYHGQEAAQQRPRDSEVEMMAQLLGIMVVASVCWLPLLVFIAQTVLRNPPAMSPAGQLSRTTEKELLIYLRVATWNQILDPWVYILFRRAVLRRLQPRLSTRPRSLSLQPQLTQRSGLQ
Reported Endpoint: CF

>  <Smiles Text>
Cc1ccc(S(=O)(=O)N[C@H]2CC[C@H](O)[C@@H]2C/C=C\CCCC(=O)O)cc1

>  <Numeric Value>
7

$$$$
>  <Smiles Text>
Cc1ccc(S(=O)(=O)N[C@H]2CC/C(=N\OCC3CCCCC3)[C@@H]2C/C=C\CCCC(=O)O)cc1

>  <Numeric Value>
1

$$$$
>  <Smiles Text>
O=C(O)CCC/C=C\C[C@H]1/C(=N/OCc2ccc(C(F)(F)F)cc2)CC[C@@H]1NS(=O)(=O)c1ccc(F)cc1

>  <Numeric Value>
0.13

$$$$
>  <Smiles Text>
O=C(O)CC/C=C\C[C@@H]1[C@@H](NS(=O)(=O)c2ccc(Cl)cc2)CC[C@@H]1O

>  <Numeric Value>
31

$$$$

Entry source: ChEMBL document CHEMBL1128160
